The compounds listed here are annotated with their Post-emerge Herbicidal Activity CORN (crop damage rating).
Tested on: field corn (Zea mays L., var. Dekalb 535, CORN)
assay.info: Post-emerge test, crop safety
Assay type: in vivo
measurement.parameters: 63 g ai/ha; post-emerge; 14 days after application; rating scale 0-100
Experimental: A standard greenhouse herbicide activity screening system was used to evaluate the herbicidal efficacy and crop safety of these test compounds. […] At 14 days after application of the test materials, phytotoxicity ratings were recorded. […]
# print the numeric value only

A selection of reference data follows.
# compound, system.name, value
data = [
    ("CCOC(=O)C(Cl)Cc1cc(Cl)cc(F)c1-n1c(=O)cc(C(F)(F)F)n(C)c1=O (centres unmarked)", "field corn (Zea mays L., var. Dekalb 535, CORN)", 0),
    ("COc1c(Cl)cc(F)c(-n2c(=O)cc(C(F)(F)F)n(C)c2=O)c1NN=CCc1ccccc1", "field corn (Zea mays L., var. Dekalb 535, CORN)", 45),
    ("COc1c(Cl)cc(F)c(-n2c(=O)cc(C(F)(F)F)n(C)c2=O)c1NNC(=O)c1ccc(F)cc1F", "field corn (Zea mays L., var. Dekalb 535, CORN)", 50),
]

get_value(item= CCOc1c(Cl)cc(F)c(-n2c(=O)cc(C(F)(F)F)n(C)c2=O)c1Cl , readout=Post-emerge Herbicidal Activity CORN (crop damage rating)) returns 5

compound CCOC(=O)C(Cl)Cc1c(OC)c(Cl)cc(F)c1-c1nn(C)c(C(F)(F)F)c1Cl (centres unmarked) , Post-emerge Herbicidal Activity CORN (crop damage rating) observed: 10

What the record says about COc1c(Cl)cc(F)c(-n2c(=O)cc(C(F)(F)F)n(C)c2=O)c1NN=C(C(F)(F)F)C(F)(F)F : Post-emerge Herbicidal Activity CORN (crop damage rating) is 30

// Cn1c(C(F)(F)F)cc(=O)n(-c2c(O)cc(Cl)cc2Cl)c1=O : Post-emerge Herbicidal Activity CORN (crop damage rating) value = 0

For Cn1c(C(F)(F)F)cc(=O)n(-c2c(Cl)cc(Cl)cc2OC(=O)c2ccc(F)cc2F)c1=O the compound record lists Post-emerge Herbicidal Activity CORN (crop damage rating) as 0
